Below is a list of entries, each paired with its recorded normalized growth value.
Assay: chemical genetic growth profiling, strain panel (AID 1159580);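 also: tested at 20 µM; growth read once vehicle control cultures reached saturation at 30 °C; 1 = growth at the plate median or of vehicle wells; lower values mean less growth of the strain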
Settings: S. cerevisiae deletion strains, growth OD, locus YHR094C, strain hxt1, active compounds read low
In all, about 5,500 compounds went through this assay and about 2,000 (36%) were called active. Roughly 18% stayed inconclusive and do not appear here. The list shows a part of the results.

Example entries begin here.
compound: NC[C@H]1O[C@H](O[C@H]2[C@H](O)[C@@H](O[C@H]3O[C@H](CO)[C@@H](O)[C@H](N)[C@H]3O)[C@H](N)C[C@@H]2N)[C@H](N)[C@@H](O)[C@@H]1O
normalized growth: 0.992 (inactive)

compound: NC(=O)c1ccc([N+](=O)[O-])cc1Cl
normalized growth: 0.989 (inactive)

compound: CNC[C@H](O)c1cccc(O)c1
normalized growth: 1.02 (inactive)

compound: COc1cc(C(=O)O)cc(OC)c1OC
normalized growth: 1.02 (inactive)

Challenge: Any idea what its normalized growth is? The compound is COC(=O)C[C@H]1C(C)(C)[C@@H](O)[C@@H]2CC3=C4CC(O)O[C@@H](c5ccoc5)[C@]4(C)CCC3[C@@]1(C)C2=O (stereo partly specified)
Response given: 0.979 (inactive)

Challenge: Any idea what its normalized growth is? The compound is COc1ccc(-c2cc(=O)c3c(O)c(OC)c(OC)cc3o2)cc1O
Response given: 0.995 (inactive)

Challenge: Any idea what its normalized growth is? The compound is NS(=O)(=O)c1cc2c(cc1C(F)(F)F)NC(Cc1ccccc1)NS2(=O)=O (stereo unspecified)
Response given: 1.01 (inactive)

Challenge: Any idea what its normalized growth is? The compound is COc1cc(O)c2c(=O)cc(-c3ccc(O)cc3)oc2c1
Response given: 0.996 (inactive)

Challenge: Any idea what its normalized growth is? The compound is CC(=O)[C@@]1(O)CCC2C3C=C(Cl)C4=CC(=O)[C@@H]5CC5[C@]4(C)C3CC[C@@]21C (stereo partly specified)
Response given: 1.01 (inactive)

Challenge: Any idea what its normalized growth is? The compound is Cc1c(C(N)=O)cc([N+](=O)[O-])cc1[N+](=O)[O-]
Response given: 0.977 (inactive)

Challenge: Any idea what its normalized growth is? The compound is CC(=O)OCC(=O)[C@@]1(O)CCC2C3C[C@H](C)C4=CC(=O)C=CC4(C)C3[C@@H](O)CC21C (stereo partly specified)
Response given: 1.01 (inactive)

Challenge: Any idea what its normalized growth is? The compound is CCCc1nn(C)c2c(=O)[nH]c(-c3cc(S(=O)(=O)N4CCN(C)CC4)ccc3OCC)nc12
Response given: 0.995 (inactive)

Challenge: Any idea what its normalized growth is? The compound is CSc1nc(NC(C)C)nc(NC(C)C)n1
Response given: 1 (inactive)
